Where these numbers come from: patent US20250367209A1

# half-life listing for each entry below
# assayProcedure: Metabolic stability in human liver microsomes
# Assay type: in vitro ADME
# appliedConditions: Table 3, read-out: ADME t1/2 (min): HLMt1/2
Value expressed in min; do not type the unit.

| smiles | outputUnit | valueMeasured |
| --- | --- | --- |
| O=C(CN1C(=O)CSc2ccc(F)cc21)Nc1nnc(-c2ccccn2)[nH]1 | min | 238 |

Query :: Name the reported half-life value associated with the compound O=C(CN1CCOc2ccccc21)Nc1nnc(-c2ccccn2)[nH]1
Result :: 93

Query :: Entry O=C(CN1C(=O)CSc2cc(F)c(F)cc21)Nc1nnc(-c2ccccn2)[nH]1 has what half-life?
Result :: 137

Query :: Reported half-life, compound Cc1ccc2c(c1)SCC(=O)N2CC(=O)Nc1nnc(-c2ccccn2)[nH]1 : ____
Result :: 133

Query :: What does the record list as half-life for COc1ccc2c(c1)N(CC(=O)Nc1nnc(-c3ccccn3)[nH]1)C(=O)CS2 ?
Result :: 150

Query :: Name the reported half-life value associated with the compound O=C(CCN1C(=O)CSc2cc(Cl)ccc21)Nc1nnc(-c2ccccn2)[nH]1
Result :: 62

Query :: // query half-life value for entry O=C(CN1CCCc2ccccc21)Nc1nnc(-c2ccccn2)[nH]1
Result :: 66

Query :: Requested read-out: half-life. Entry: O=C(CCN1C(=O)CSc2cc(F)ccc21)Nc1nnc(-c2ccccn2)[nH]1
Result :: 78

Query :: Param item = COc1ccc2c(c1)SCC(=O)N2CC(=O)Nc1nnc(-c2ccccn2)[nH]1 ; retrieve measured half-life.
Result :: 175
